Field: sensor-assay potency score (higher = more potent). Provide a value for each of the sequences that follow.
Biological target: YIPF6
Assay: pooled miR-30 sensor sort-seq; sequence = guide strand; further: reference of the scale not given here
Conditions: shRNA

For every record below, what is its sensor-assay potency score (higher = more potent)?
1. TTTCACTATCTGCAGAGTCTCT
2. TCTCTTTGCAGCATTAATGCGA

1: -0.747; 2: -0.247

====

Target: NRXN1
Assay: pooled miR-30 sensor sort-seq; sequence = guide strand
Details: shRNA
Field: sensor-assay potency score (higher = more potent). Provide a value for each of the sequences that follow.
One number for each entry.

Study these solved cases before continuing.
> print(dat)
          record.sequence  reported.result
1  TAAAGATATATGTCGTCCCAGG            -1.02
2  AAGATTGACATAATCAGCCGAT             0.46

For every record below, what is its sensor-assay potency score (higher = more potent)?
1. TATTTCTATACAAGTGTCCATT
2. ATTGTTGCAAGCACACACCTTG

-1.16
-0.22
